TGT: HLA-A*02:16
TEST_METHOD_NOTES: IEDB peptide-MHC binding, purified MHC/direct/fluorescence; filed as Kd, often an IC50 or EC50 that approximates it; bounds were set here for any values at or beyond the usual limits of such assays
ASSAY_CONDITIONS: source organism: Maporal virus
pKd: −log10 of the molar value.
VALUE_TYPE: pKd

Hey, HLA-A*02:16 data for DWMDRIEEF : pKd came out at ≤ 4.70

* * *

TGT: HLA-B*44:03
TEST_METHOD_NOTES: IEDB peptide-MHC binding, purified MHC/competitive/radioactivity; filed as Kd, often an IC50 or EC50 that approximates it; bounds were set here for any values at or beyond the usual limits of such assays
ASSAY_CONDITIONS: source organism: Dengue virus 1 Brazil/97-11/1997
# pKd per record follows
Scale explanation: pKd corresponds to minus log10 of a concentration expressed in moles per litre.

Below are worked cases with known answers.
{"SEQUENCE_CODE": "NESDPEGALW", "VALUE_TYPE": "pKd", "OBSERVED_MEASUREMENT": 6.87}
{"SEQUENCE_CODE": "QEVVVLGSQE", "VALUE_TYPE": "pKd", "OBSERVED_MEASUREMENT": 4.86}
{"SEQUENCE_CODE": "NEGIMAIGI", "VALUE_TYPE": "pKd", "OBSERVED_MEASUREMENT": 6.96}

Hey, HLA-B*44:03 data for MEHKYSWKSW : pKd came out at 6.86

* * *

TGT: HLA-A*24:02
TEST_METHOD_NOTES: IEDB peptide-MHC binding, purified MHC/competitive/radioactivity; filed as Kd, often an IC50 or EC50 that approximates it; bounds were set here for any values at or beyond the usual limits of such assays
ASSAY_CONDITIONS: source organism: Mammarenavirus lassaense
VALUE_TYPE: Kd (µM)
Write the number in µM without appending the unit.

For record YFESYVRPFV the listed Kd is 12.8

* * *

TGT: HLA-A*02:01
TEST_METHOD_NOTES: IEDB peptide-MHC binding, purified MHC/direct/fluorescence; filed as Kd, often an IC50 or EC50 that approximates it; bounds were set here for any values at or beyond the usual limits of such assays
ASSAY_CONDITIONS: source organism: Pseudomonas aeruginosa
VALUE_TYPE: Kd

{"SEQUENCE_CODE": "AYFATPASV", "VALUE_TYPE": "Kd", "OBSERVED_MEASUREMENT": "2.27 µM"}

# context switch: different sequence, same Kd
For record ACMDGFEVV the listed Kd is 0.29 µM

* * *

TGT: HLA-A*02:01
TEST_METHOD_NOTES: IEDB peptide-MHC binding, purified MHC/competitive/fluorescence; filed as Kd, often an IC50 or EC50 that approximates it; bounds were set here for any values at or beyond the usual limits of such assays
ASSAY_CONDITIONS: source organism: Entamoeba histolytica HM-1:IMSS
pKd: −log10 of the molar value.
VALUE_TYPE: pKd

For record NPAACSYMV the listed pKd is ≤ 4.70

* * *

TGT: HLA-A*31:01
TEST_METHOD_NOTES: IEDB peptide-MHC binding, purified MHC/direct/fluorescence; filed as Kd, often an IC50 or EC50 that approximates it; bounds were set here for any values at or beyond the usual limits of such assays
ASSAY_CONDITIONS: source organism: Mycobacterium tuberculosis
VALUE_TYPE: Kd

For record RPRLWRSVI the listed Kd is ≥ 20 µM

Values were extracted from the Immune Epitope Database (IEDB).
